- Study target: UniProt:P07711
- Condition context: read-out: Ki* hCatL; after 30-min incubation; pH 5.5; fit of vs/v0 to Eq. 5
Decision: Ki beneath 20 nM gives Satisfied; Ki meeting or exceeding 20 nM gives Not satisfied.

> print(dat)
                                   compound     class.name
1  COc1ccc2c(c1)C[C@H](NC(=O)[C@H](Cc1ccccc1)NC(=O)OCc1ccccc1)C(O)O2 (some centres unmarked) [Compound 3]      Satisfied
2  COC(=O)c1ccc2c(c1)C[C@H](NC(=O)[C@H](Cc1ccccc1)NC(=O)OCc1ccccc1)C(O)O2 (some centres unmarked) [Compound 7]      Satisfied
3  O=C(N[C@@H](Cc1ccccc1)C(=O)N[C@H]1Cc2cc(Cl)ccc2OC1O)OCc1ccccc1 (some centres unmarked) [Compound 5]      Satisfied
4  O=C(N[C@@H](Cc1ccccc1)C(=O)N[C@H]1Cc2cc(F)ccc2OC1O)OCc1ccccc1 (some centres unmarked) [Compound 6]      Satisfied
5  Cc1ccc2c(c1)C[C@H](NC(=O)[C@H](Cc1ccccc1)NC(=O)OCc1ccccc1)C(O)O2 (some centres unmarked) [Compound 4]  Not satisfied

----------
- Study target: human cathepsin L (Homo sapiens)
- Sequence (P07711 114-333): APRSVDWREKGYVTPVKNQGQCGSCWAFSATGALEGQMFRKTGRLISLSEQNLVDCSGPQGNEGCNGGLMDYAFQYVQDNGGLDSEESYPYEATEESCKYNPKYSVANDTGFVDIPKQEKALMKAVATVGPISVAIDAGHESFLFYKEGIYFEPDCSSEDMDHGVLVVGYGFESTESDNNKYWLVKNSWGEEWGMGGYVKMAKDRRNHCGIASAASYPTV
- Assay details: biochemical
- Condition context: Ki* hCatL, after 30-min incubation; pH 5.5; fit of vs/v0 to Eq. 5
Residues, ends and D or L forms follow the SMILES beside them. *: point of attachment. Cbz = O=C(OCc1ccccc1)*
Measurement type: Ki (nM)

> print(dat)
                                   compound  recorded.result
1  O=C[C@H](Cc1ccccc1)NC(=O)[C@H](Cc1ccccc1)NC(=O)OCc1ccccc1 [Compound 1, Cbz-Phe-Phe-CHO] (Cbz-Phe-Phe-aldehyde)             0.14
2  CC(C)[C@H](NC(=O)OCc1ccccc1)C(=O)N[C@@H](CC1CCCCC1)C(=O)N[C@H]1Cc2cccnc2OC1O (stereo partly shown) [Compound 9]               22
3  CN1CCN(C(=O)NC(Cc2ccccc2)C(=O)NC2Cc3ccccc3OC2O)CC1 (stereo not drawn) [Compound 8, NMe-Pip-Phe-o-Tyr-CHO]                9
4  O=C(N[C@@H](Cc1ccccc1)C(=O)N[C@H]1Cc2ccccc2OC1O)OCc1ccccc1 (stereo partly drawn) [Compound 2, Cbz-Phe-o-Tyr-CHO]             12.6

----------
Each entry below carries its recorded pKi.
- Study target: human cathepsin B (Homo sapiens)
pKi: −log10 of the molar value.
Measurement type: pKi

> print(dat)
                                   compound  measurement.type  recorded.result
1  O=C(N[C@@H](Cc1ccccc1)C(=O)N[C@H]1Cc2cc(F)ccc2OC1O)OCc1ccccc1 (stereo partly shown)               pKi             5.64
2  COC(=O)c1ccc2c(c1)C[C@H](NC(=O)[C@H](Cc1ccccc1)NC(=O)OCc1ccccc1)C(O)O2 (stereo partly shown)               pKi             6.17
3  O=C(N[C@@H](Cc1ccccc1)C(=O)N[C@H]1Cc2cc(Cl)ccc2OC1O)OCc1ccccc1 (stereo partly shown)               pKi             5.85
4  COc1ccc2c(c1)C[C@H](NC(=O)[C@H](Cc1ccccc1)NC(=O)OCc1ccccc1)C(O)O2 (stereo partly shown)               pKi             5.26
5  O=C(N[C@@H](Cc1ccccc1)C(=O)N[C@H]1Cc2ccccc2OC1O)OCc1ccccc1 (stereo partly shown)               pKi             5.35
6  CN1CCN(C(=O)NC(Cc2ccccc2)C(=O)NC2Cc3ccccc3OC2O)CC1 (stereo not shown)               pKi             5.90
7  Cc1ccc2c(c1)C[C@H](NC(=O)[C@H](Cc1ccccc1)NC(=O)OCc1ccccc1)C(O)O2 (stereo partly shown)               pKi             5.21
